Where do these numbers come from? They come from patent US11542233B2.

System: TDP-43 aggregation in PC12 cells stably expressing GFP-tagged mutant TDP-43 (TDP-43^Q33IK::eGFP)
method.description: In vitro efficacy assay: inhibition of TDP-43 inclusions, concentration-response, fluorescence microscopy
Assay type: cell-based
recorded.conditions: PC12 cells, 1 hour pre-treatment, 15 μM sodium arsenite for 23 hours, 10-point dose response curve
pIC50: −log10 of the molar value.
Would you kindly list pIC50 for each of these compounds?

Qu. Requested field: pIC50. Item: CCN(C(=O)c1cc2ccccc2[nH]1)[C@H]1CCC[C@@H](NCc2cccc(F)c2)C1 [Compound 106]
Ans. > 7.00

Qu. For the compound CCN(C(=O)c1cc2ccccc2[nH]1)[C@H]1CCC[C@@H](NCc2cccc(F)c2)C1 [Compound 122] , what pIC50 is on record?
Ans. < 5.70
